Cited source for all entries: PubChem BioAssay AID330

The reader will find reported T/C values listed item by item below.
tested on: P388 leukemia ip, CD2F1 mice, survival T/C; experiment: NCI In Vivo Anticancer Drug Screen. Data for tumor model P388 Leukemia (intraperitoneal) in CD2F1 (CDF1) mice; settings: endpoint: median survival time; dose: 6.25 mg/kg/injection; schedule: Q01DX005 (ip); vehicle: Klucel (hydroxypropylcellulose) (HPC); higher = longer survival
Toxic doses and inconclusive results are not listed.

{"smiles string": "COc1cc2c[n+](C)c3c4cc(OC)c(OCc5ccccc5)cc4c(OCc4ccccc4)cc3c2cc1OC", "tgt": "P388 leukemia ip, CD2F1 mice, survival T/C", "T/C": "100 % of control"}

Q: Fill blank: measured T/C of the molecule `O=C1c2ccccc2C(=O)c2c1nc1sccn21` is ____.
Result: 108 % of control

Q: GET /values?readout=T/C&item= `Oc1c(Br)cc(Br)cc1Oc1c(O)c(Br)c(Br)c(Br)c1Br`
Result: 104 % of control

Q: Need T/C of `O=C(O[C@H]1CCN2C[C@H]3C[C@H](CN4C(=O)CCC[C@H]34)[C@@H]2C1)c1ccc(O)cc1` , thanks.
Result: 103 % of control

Q: Report T/C for `CCC[C@H]1N=C(OCC)N[C@@H]1CCC` please.
Result: 108 % of control

Q: // T/C lookup, key: `COc1cc2c(cc1O)Cc1c-2[n+](C)cc2cc(OC)c(OC)cc12`
Result: 117 % of control

----------
test system: P388 leukemia ip, CD2F1 mice, survival T/C; assay: NCI In Vivo Anticancer Drug Screen. Data for tumor model P388 Leukemia (intraperitoneal) in CD2F1 (CDF1) mice; conditions: endpoint: median survival time; dose: 1.56 mg/kg/injection; schedule: Q01DX009 (ip); vehicle: saline; higher = longer survival
Toxic doses and inconclusive results are not listed.
quantity measured: T/C

Reference set, count: 4
{"molecule": "C1CC(N2CC2)CCC1N1CC1 (stereo not given)", "T/C": "182 % of control"}
{"molecule": "Cc1c[n+]2ccccc2n1C", "T/C": "98 % of control"}
{"molecule": "Clc1ccc(C2C3CCN2CC3)cc1 (stereo not given)", "T/C": "96 % of control"}
{"molecule": "Cc1cccc(N(CCOS(C)(=O)=O)CCOS(C)(=O)=O)c1", "T/C": "95 % of control"}

Q: Looking for the measured T/C of `COC(=O)N(C)SN(C)C(=O)O/N=C(\SC)C(=O)N(C)C` , can you help?
Result: 101 % of control

----------
system: P388 leukemia ip, CD2F1 mice, survival T/C; assay: NCI In Vivo Anticancer Drug Screen. Data for tumor model P388 Leukemia (intraperitoneal) in CD2F1 (CDF1) mice; details: endpoint: median survival time; dose: 100.0 mg/kg/injection; schedule: Q01DX001 (ip); vehicle: Klucel (hydroxypropylcellulose) (HPC); higher = longer survival
Toxic doses and inconclusive results are not listed.
The following molecules are shown together with reported T/C values.

A selection of reference data follows.
{"molecule": "c1ccc(CNc2ccnc3c2ccc2ccccc23)cc1", "T/C": "100 % of control"}
{"molecule": "c1ccc(C(c2ccccc2)(c2cccs2)N2CCCCC2)cc1", "T/C": "99 % of control"}
{"molecule": "Cn1nnn(Cc2ccccc2)/c1=N/C(=S)Nc1ccccc1", "T/C": "99 % of control"}

Q: Fill in the recorded T/C for this molecule, with P388 leukemia ip, CD2F1 mice, survival T/C as test system: `CC1(C)C=CC(=O)C=C1C#N`
Result: 92 % of control

Q: Recall the recorded T/C for N#CC(C#N)C(c1ccccc1)c1cccc2ccccc12 (centres undefined) with P388 leukemia ip, CD2F1 mice, survival T/C and state it.
Result: 101 % of control

Q: Entry Ic1cc2c(cc1C1CO1)OCO2 (centres undefined) , system P388 leukemia ip, CD2F1 mice, survival T/C: what T/C was measured?
Result: 103 % of control

Q: Lab note: need T/C for CCOc1ccc(N=NC2C(=O)N(c3cccc(Cl)c3Cl)C(=S)N(c3ccc(OC)cc3)C2O)cc1 (centres undefined) on P388 leukemia ip, CD2F1 mice, survival T/C, anyone have it?
Result: 100 % of control

Q: Can you look up T/C on P388 leukemia ip, CD2F1 mice, survival T/C for COc1cc(OC)cc(C2(C(O)C3OC(C)(C)OC3C)SCCCS2)c1 (centres undefined) ?
Result: 103 % of control

----------
tested on: P388 leukemia ip, CD2F1 mice, survival T/C; experiment: NCI In Vivo Anticancer Drug Screen. Data for tumor model P388 Leukemia (intraperitoneal) in CD2F1 (CDF1) mice; conditions: endpoint: median survival time; dose: 12.5 mg/kg/injection; schedule: Q01DX009 (ip); vehicle: water
Inconclusive results and toxic doses are left out. The calls were made as follows: active = survival T/C of 150% or more; inactive = T/C below 125% in these data.
Bench note: report the call from active, inactive

For orientation, consider the following solved cases.
{"compound": "CCCC(=O)Oc1ccc[nH]c1=O", "classification": "inactive"}
{"compound": "N#CCC[P+](CCC#N)(CCC#N)CCN1C(=O)c2ccccc2C1=O", "classification": "inactive"}
{"compound": "NC(=O)Cn1ccnc1[N+](=O)[O-]", "classification": "inactive"}
{"compound": "[NH-]C(CO)C(=O)O.[NH-]C(CO)C(=O)O.[Pt+2] (configuration not stated)", "classification": "inactive"}
{"compound": "Cc1cc(C)[s+]s1", "classification": "inactive"}

Q: For COc1cccc2c1C(=O)c1c(O)c3c(c(O)c1C2=O)C[C@@](O)(C(C)=O)C[C@@H]3OC1CC(NC(C)C)C(O)C(C)O1 (some centres not stated) , which call appears in the assay record?
Result: active

Q: GET /call?item= `COP(=O)(N/N=C/C(=O)O)OC` returns the recorded outcome of this test.
Result: inactive

----------
system: P388 leukemia ip, CD2F1 mice, survival T/C; assay: NCI In Vivo Anticancer Drug Screen. Data for tumor model P388 Leukemia (intraperitoneal) in CD2F1 (CDF1) mice; settings: endpoint: median survival time; dose: 200.0 mg/kg/injection; schedule: Q01DX001 (ip); vehicle: saline; higher = longer survival
Toxic doses and inconclusive results are not listed.
quantity measured: T/C

{"compound": "CCN(CC)CCOc1ccc(C(=O)CC(=O)c2c(-c3ccccc3)n(C)c3ccccc23)cc1", "result": "91 % of control"}
{"compound": "COCc1cccc2ccnc(COC)c12", "result": "102 % of control"}
{"compound": "CCN(CC)P(c1ccccc1)N(CC)CC", "result": "111 % of control"}

Q: Recorded T/C for CCOCCC(N=NC(=S)NNC)c1ccccc1 (stereo unspecified) , please?
Result: 94 % of control

Q: What value of measured T/C is listed for CCCC(=O)N1CCCCC1CC (stereo unspecified) ?
Result: 102 % of control

Q: Please give the measured T/C for this compound: `COS(=O)(=O)C(F)(F)F`
Result: 111 % of control

----------
test system: P388 leukemia ip, CD2F1 mice, survival T/C; test: NCI In Vivo Anticancer Drug Screen. Data for tumor model P388 Leukemia (intraperitoneal) in CD2F1 (CDF1) mice; settings: endpoint: median survival time; dose: 25.0 mg/kg/injection; schedule: Q01DX005 (ip); vehicle: Klucel (hydroxypropylcellulose) (HPC); higher = longer survival
Inconclusive results and toxic doses are left out.
quantity measured: T/C

Field: example entries. Status: answers known.
{"compound": "O[C@@]12CO[C@@H](c3ccc4c(c3)OCO4)[C@@H]1CO[C@H]2c1ccc2c(c1)OCO2", "T/C": "92 % of control"}
{"compound": "CC1C(=O)C23CC1CCC2C12COC(O)C1C(C)(C)C(O)CC2OC3=O (stereo not given)", "T/C": "94 % of control"}
{"compound": "COc1cc2c(cc1O)Cc1c-2[n+](C)cc2cc(OC)c(OC)cc12", "T/C": "115 % of control"}
{"compound": "CCCCC(CC)C(=O)OCCNC(=O)C(C)OC(=O)C(CC)CCCC (stereo not given)", "T/C": "105 % of control"}

--- query ---
Q: What T/C value was documented for this compound, `CCOc1ccc(C2=C(O)/C(=C(\C(=O)Nc3nccs3)c3ccc(OCC)cc3)OC2=O)cc1` ?
Result: 104 % of control

----------
system: P388 leukemia ip, CD2F1 mice, survival T/C; test: NCI In Vivo Anticancer Drug Screen. Data for tumor model P388 Leukemia (intraperitoneal) in CD2F1 (CDF1) mice; details: endpoint: median survival time; dose: 400.0 mg/kg/injection; schedule: Q04DX002 (ip); vehicle: saline; higher = longer survival
Inconclusive results and toxic doses are left out.
quantity measured: T/C

Examples with answers:
{"molecule": "[N-]=[N+]=Nc1nnc(-c2ccccc2)c(=O)[nH]1", "T/C": "96 % of control"}
{"molecule": "N#CCNCC#N", "T/C": "102 % of control"}
{"molecule": "O=C(NO)C1CCCCC12OCCO2 (stereo unspecified)", "T/C": "101 % of control"}
{"molecule": "O=C1C(=Cc2cc(Cl)c(O)c(Cl)c2)C(=O)c2ccccc21", "T/C": "88 % of control"}
{"molecule": "[O-][n+]1nccnc1N1CCCCC1", "T/C": "100 % of control"}

Proceeding to the next molecule to report its T/C.
Q: Look up T/C with P388 leukemia ip, CD2F1 mice, survival T/C for this molecule: CCC(C)c1cc(/C=C2/OC(=O)c3ccccc32)cc(C(C)CC)c1O (stereo unspecified)
Result: 93 % of control
